ASSAY TARGET: ZFP SBS#1311 (synthetic)
Sequence (chain, as listed by the source): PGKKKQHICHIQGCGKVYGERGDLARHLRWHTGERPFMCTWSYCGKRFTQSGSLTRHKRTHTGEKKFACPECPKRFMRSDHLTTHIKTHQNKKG
EXPERIMENT DESCRIPTION: EMSA
MEASUREMENT CONDITIONS: tags: MBP fusion
ENDPOINT LABEL: pKd
Give bare numbers, as −log10 of the molar value.

Q: Requested field: pKd. Item: TGGGCAGCC (dsDNA) DNA 1: TGGGCAGCC DNA 2: GGCTGCCCA
A: 9.04

Taken from patent US20030068675.
